experiment: pKa of the ligands by 1H NMR titration; type: physicochemical; details: 0.20 M KNO3 with 10% (v/v) D2O, I = 0.20 M KNO3, 25.0 °C, read-out: pKa (OH)
Entries and their pKa

{"chemical-smiles": "Oc1c(CN2CCCC2)cc(Cl)c2cccnc12", "pKa": 7.65}
{"chemical-smiles": "Oc1c(CN2CCCCC2)cc(Cl)c2cccnc12", "pKa": 7.43}

====

tested on: MES-SA; assay: Cytotoxicity in triple coculture, MES-SA mCherry; type: cell-based, human; settings: Homo sapiens, MES-SA/B1, MES-SA/Dx5, 144 h
pIC50: −log10 of the molar value.
Entries and their pIC50

{"compound": "COc1cccc2c1C(=O)c1c(O)c3c(c(O)c1C2=O)C[C@@](O)(C(=O)CO)C[C@@H]3O[C@H]1C[C@H](N)[C@H](O)[C@H](C)O1 [doxorubicin, reference compound]", "measurement-target": "MES-SA", "pIC50": 7.52}
{"compound": "COc1cc([C@@H]2c3cc4c(cc3[C@@H](O[C@@H]3O[C@@H]5CO[C@@H](C)O[C@H]5[C@H](O)[C@H]3O)[C@H]3COC(=O)[C@H]23)OCO4)cc(OC)c1O [etoposide]", "measurement-target": "MES-SA", "pIC50": 6.59}

====

Entries and their IC50
tested on: MES-SA; experiment: Cytotoxicity in double coculture, MES-SA mCherry; conditions: Homo sapiens, MES-SA, 144 h, read-out: IC50 MES-SA

{"compound": "Oc1c(CN2CCCCC2)ccc2cccnc12 [PHQ, 7-(1-piperidinylmethyl)quinolin-8-ol, reference compound]", "measurement-target": "MES-SA", "IC50 / nM": 3800}
{"compound": "Oc1c(CN2CCCCC2)cc(Cl)c2cccnc12", "measurement-target": "MES-SA", "IC50 / nM": 1090}
{"compound": "COc1cccc2c1C(=O)c1c(O)c3c(c(O)c1C2=O)C[C@@](O)(C(=O)CO)C[C@@H]3O[C@H]1C[C@H](N)[C@H](O)[C@H](C)O1 [doxorubicin, reference compound]", "measurement-target": "MES-SA", "IC50 / nM": 30}
